Target: human wild type STING (WT STING) (Homo sapiens, UniProt Q86WV6, H232R)
Sequence (Q86WV6 whole entry H232R): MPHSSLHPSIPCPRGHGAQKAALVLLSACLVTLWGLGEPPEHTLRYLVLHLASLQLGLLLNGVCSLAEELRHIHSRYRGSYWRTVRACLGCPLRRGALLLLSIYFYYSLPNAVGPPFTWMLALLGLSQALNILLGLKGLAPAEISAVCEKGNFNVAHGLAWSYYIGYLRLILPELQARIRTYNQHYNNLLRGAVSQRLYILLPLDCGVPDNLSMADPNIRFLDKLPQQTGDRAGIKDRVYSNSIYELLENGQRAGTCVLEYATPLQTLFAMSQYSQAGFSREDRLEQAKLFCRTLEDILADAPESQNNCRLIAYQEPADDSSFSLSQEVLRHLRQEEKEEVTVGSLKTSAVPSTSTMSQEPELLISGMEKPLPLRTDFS
Test: Digitonin assay using 293T wtSTING-FL reporter cells (ISRE firefly luciferase reporter)
Type: cell-based
Conditions: 293T wtSTING-FL cells; 30 min in Digitonin buffer, then 5 hours; luciferase read-out; 8-point dose-response curve; read-out: Digitonin assay EC50 (μmol · l^−1) WT STING
Excerpt: Two complementary oligonucleotides of the sequence […] […] The oligonucleotides were mixed in equal molar amounts, hybridized, and cleaved by restriction endonucleases HindIII (cat. #. R0104S, NEB, Ipswich, USA) and BglII (cat. #R0144S, NEB, Ipswich, USA). Ultimately, they were ligated into plasmid pGL4.27 (cat. #E6651, Promega, Madison, USA) linearized with the same enzymes. […]
Measured property: EC50 (nM)

Consider the following illustrative entries.
Smiles data	Target under test	EC50 / nM
Nc1nc2c(ncn2[C@@H]2O[C@@H]3COP(=O)(O)O[C@H]4[C@@H](F)[C@H](n5cnc6c(N)ncnc65)O[C@@H]4COP(=O)(O)CO[C@@H]2[C@@H]3O)c(=O)[nH]1	human wild type STING (WT STING) (Homo sapiens, UniProt Q86WV6, H232R)	20
Nc1ncnc2c1ncn2[C@@H]1O[C@@H]2COP(=O)(O)O[C@@H]3[C@H](F)[C@@H](COP(=O)(O)CO[C@H]2[C@H]1F)O[C@H]3n1cnc2c(=O)[nH]cnc21	human wild type STING (WT STING) (Homo sapiens, UniProt Q86WV6, H232R)	20

1 = Nc1ncnc2c1ncn2[C@@H]1O[C@@H]2COP(=O)(O)O[C@@H]3[C@H](F)[C@@H](COP(=O)(O)CO[C@H]2[C@H]1F)O[C@H]3n1cnc2c(N)ncnc21
2 = Nc1nc2c(ncn2[C@@H]2O[C@@H]3COP(=O)(O)CO[C@H]4[C@H](O)[C@H](n5cnc6c(N)ncnc65)O[C@@H]4COP(=O)(O)O[C@@H]2[C@@H]3O)c(=O)[nH]1
3 = Nc1ncnc2c1ncn2[C@@H]1O[C@@H]2COP(=O)(O)O[C@@H]3[C@H](O)[C@@H](COP(=O)(O)CO[C@H]2[C@H]1O)O[C@H]3n1cnc2c(N)ncnc21
4 = Nc1nc2c(ncn2[C@@H]2O[C@@H]3COP(=O)(O)O[C@@H]4[C@H](O)[C@@H](COP(=O)(O)CO[C@H]3[C@H]2F)O[C@H]4n2cnc3c(N)ncnc32)c(=O)[nH]1
Descending sort on EC50 required. Please list the labels in the order you were asked to rank them. 3, 4, 2, 1
